molecular target: recombinant human ALK5 (TGF-βR1) protein (Homo sapiens, UniProt P36897); test: Biochemical ALK5 (TGF-βR1) assay to measure pKi (LANCE Ultra ULight kinase assay); details: apparent pKi, converted from pIC50 by Cheng-Prusoff
Sequence (P36897 34-503): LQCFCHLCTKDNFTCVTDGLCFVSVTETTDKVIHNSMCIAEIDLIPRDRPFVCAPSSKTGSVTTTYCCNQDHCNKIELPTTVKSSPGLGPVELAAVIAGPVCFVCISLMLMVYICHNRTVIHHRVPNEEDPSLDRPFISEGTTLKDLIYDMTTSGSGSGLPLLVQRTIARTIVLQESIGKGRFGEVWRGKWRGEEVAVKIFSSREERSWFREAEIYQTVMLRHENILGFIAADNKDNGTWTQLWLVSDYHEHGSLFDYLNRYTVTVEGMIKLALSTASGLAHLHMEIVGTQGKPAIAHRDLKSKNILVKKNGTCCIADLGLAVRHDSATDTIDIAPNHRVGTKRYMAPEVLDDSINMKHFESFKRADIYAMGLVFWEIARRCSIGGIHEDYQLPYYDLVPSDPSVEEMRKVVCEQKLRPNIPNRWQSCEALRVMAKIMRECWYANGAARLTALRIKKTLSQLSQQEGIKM
pKi: −log10 of the molar value.

{"compound": "Cc1cccc(-c2nccc(Nc3ccnc(Nc4ccc5c(c4)CCCN5)n3)n2)n1", "pKi": "8.50 to 9.40"}
{"compound": "Cc1cccc(-c2nccc(Nc3ccnc(Nc4cccc(CN5C6CCC5CNC6)c4)n3)n2)n1", "pKi": "9.50 to 10.40"}
{"compound": "CCC(C)OC(=O)C1CN(c2ccc(Nc3nccc(Nc4ccnc(-c5cccc(C)n5)n4)n3)cc2)CCN1 (racemic)", "pKi": "9.50 to 10.40"}
{"compound": "Cc1cccc(-c2nccc(Nc3ccnc(Nc4ccc(C(=O)O[C@@H]5CCNC5)nc4)n3)n2)n1", "pKi": "9.50 to 10.40"}
{"compound": "Cc1cccc(-c2nc(Nc3ccnc(Nc4cc(C(=O)O)cs4)n3)c3cccn3n2)n1", "pKi": "9.50 to 10.40"}
{"compound": "Cc1cccc(-c2nccc(Nc3ccnc(Nc4ccc(S(N)(=O)=O)cn4)n3)n2)n1", "pKi": "7.50 to 8.40"}
{"compound": "Cc1cccc(-c2nccc(Nc3ccnc(Nc4cnn(CCC5CCNCC5)c4)n3)n2)n1", "pKi": "9.50 to 10.40"}
{"compound": "Cc1cccc(-c2nc(Nc3ccnc(Nc4ccc(C(=O)NC5CCNCC5)cc4)n3)c3cccn3n2)n1", "pKi": "9.50 to 10.40"}
{"compound": "Cc1cccc(-c2nc(CC(=O)NCCO)cc(Nc3ccnc(Nc4ccc(N5CCNCC5)cc4)n3)n2)n1", "pKi": "8.50 to 9.40"}
{"compound": "Cc1cccc(-c2nccc(Nc3ccnc(Nc4cc(C(=O)O[C@@H]5CCN(C)C5)cs4)n3)n2)n1", "pKi": "9.50 to 10.40"}
{"compound": "Cc1cccc(-c2nccc(Nc3ccnc(Nc4ccc(C(=O)OC5CCNCC5)nc4)n3)n2)n1", "pKi": "9.50 to 10.40"}
{"compound": "Cc1cccc(-c2nccc(Nc3ccnc(Nc4cncc(C(=O)O[C@H]5CCNC5)c4)n3)n2)n1", "pKi": "8.50 to 9.40"}
{"compound": "Cc1cccc(-c2nccc(Nc3ccnc(Nc4csc(C(=O)OC[C@H]5CCCNC5)c4)n3)n2)n1", "pKi": "9.50 to 10.40"}
{"compound": "Cc1cccc(-c2nccc(Nc3ccnc(Nc4cccc(N5CCN(C)CC5)c4)n3)n2)n1", "pKi": "9.50 to 10.40"}
{"compound": "Cc1cccc(-c2nccc(Nc3ccnc(Nc4cccc(C(=O)N5CCN(C)CC5)c4)n3)n2)n1", "pKi": "8.50 to 9.40"}
{"compound": "Cc1cccc(-c2nccc(Nc3ccnc(Nc4ccc(N5CCNCC5)c(Cl)c4)n3)n2)n1", "pKi": "9.50 to 10.40"}
